- TESTED_TARGET: CFTR G551D mutant (Homo sapiens, UniProt P13569, G551D)
- Construct: expressed in transfected cells; host or cells: HEK293 cells, reverse transfection with plasmids
- Sequence (P13569 whole entry G551D): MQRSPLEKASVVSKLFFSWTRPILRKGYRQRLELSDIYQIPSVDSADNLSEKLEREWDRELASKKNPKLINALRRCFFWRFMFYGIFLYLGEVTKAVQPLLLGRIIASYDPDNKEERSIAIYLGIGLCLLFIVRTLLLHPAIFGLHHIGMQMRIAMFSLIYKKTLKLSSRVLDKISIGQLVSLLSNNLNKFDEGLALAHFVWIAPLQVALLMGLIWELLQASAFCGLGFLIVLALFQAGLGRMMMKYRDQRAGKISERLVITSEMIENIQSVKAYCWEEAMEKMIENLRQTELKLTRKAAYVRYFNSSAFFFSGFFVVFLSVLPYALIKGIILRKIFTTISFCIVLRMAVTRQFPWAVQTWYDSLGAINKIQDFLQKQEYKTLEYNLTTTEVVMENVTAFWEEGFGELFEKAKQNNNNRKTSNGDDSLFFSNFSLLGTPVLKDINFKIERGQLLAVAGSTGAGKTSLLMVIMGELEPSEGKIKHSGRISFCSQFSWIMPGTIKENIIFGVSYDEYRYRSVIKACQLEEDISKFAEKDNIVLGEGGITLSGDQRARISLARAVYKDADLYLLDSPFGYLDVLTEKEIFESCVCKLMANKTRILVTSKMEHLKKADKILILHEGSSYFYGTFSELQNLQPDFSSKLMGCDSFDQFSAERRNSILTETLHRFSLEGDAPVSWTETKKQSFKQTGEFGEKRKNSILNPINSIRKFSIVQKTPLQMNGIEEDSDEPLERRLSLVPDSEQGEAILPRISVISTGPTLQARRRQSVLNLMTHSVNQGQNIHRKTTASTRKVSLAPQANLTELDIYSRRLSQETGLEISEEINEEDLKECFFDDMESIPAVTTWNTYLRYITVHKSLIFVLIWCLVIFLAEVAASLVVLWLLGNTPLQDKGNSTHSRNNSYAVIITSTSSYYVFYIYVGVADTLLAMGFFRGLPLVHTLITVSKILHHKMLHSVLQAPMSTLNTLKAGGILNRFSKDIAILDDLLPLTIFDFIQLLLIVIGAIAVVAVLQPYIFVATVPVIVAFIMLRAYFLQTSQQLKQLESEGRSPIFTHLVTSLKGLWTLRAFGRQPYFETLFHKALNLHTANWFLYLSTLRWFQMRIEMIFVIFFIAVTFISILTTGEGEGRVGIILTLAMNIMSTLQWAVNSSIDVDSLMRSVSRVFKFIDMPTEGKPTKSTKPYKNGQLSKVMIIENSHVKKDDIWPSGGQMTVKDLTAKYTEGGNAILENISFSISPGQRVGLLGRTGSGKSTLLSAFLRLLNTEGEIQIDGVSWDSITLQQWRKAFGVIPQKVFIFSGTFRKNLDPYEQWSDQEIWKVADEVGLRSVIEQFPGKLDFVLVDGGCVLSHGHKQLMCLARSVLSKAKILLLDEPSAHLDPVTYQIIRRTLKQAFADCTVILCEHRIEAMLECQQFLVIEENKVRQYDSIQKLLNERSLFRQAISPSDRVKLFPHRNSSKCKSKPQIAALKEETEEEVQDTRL
- TEST_SUMMARY: YFP-halide influx assay for the CFTR-G551D mutation (HEK293 cells)
- Type: cell-based
- STATED_CONDITIONS: forskolin 10.67 μM
QUANTITY_KIND: % Activation (%)

- Nc1cc(S(=O)(=O)c2ccc(C(F)(F)F)cc2)cnc1C(=O)N1CC(OCC(F)F)C1 [Compound 231]: 59.2
- Nc1cc(S(=O)(=O)c2ccc(OC(F)(F)F)cc2)cnc1C(=O)NCC1(CO)CC1 [Compound 22]: 53.2
- Nc1cc(S(=O)(=O)c2ccc(OC(F)(F)F)cc2)cnc1C(=O)N1CC(CO)C1 [Compound 66]: 60.8
- Nc1cc(S(=O)(=O)c2ccc(C(F)(F)F)cc2)cnc1C(=O)N[C@@H]1COCC[C@@H]1O [Compound 235]: 14.4
- CC(C)OC[C@H](O)CNC(=O)c1ncc(S(=O)(=O)c2ccc(C(F)(F)F)cc2)cc1N [Compound 252]: 99.7

(I) Nc1cc(S(=O)(=O)c2ccccc2OC(F)(F)F)cnc1C(=O)N1CC(O)C1 [Compound 76]
(II) Nc1cc(S(=O)(=O)c2ccc(C(F)(F)F)cc2)cnc1C(=O)N1C[C@@H](O)[C@H](O)C1 [Compound 229]
Input: Please indicate which item has the smaller measured % Activation: I versus II Which one? Tell me its label.
Output: II
(II: 1.0%, I: 54.3%)

(1) Nc1cc(S(=O)(=O)c2ccc(OC(F)(F)F)cc2)cnc1C(=O)NC1COC2(CCCC2)C1 (centres unmarked) [Compound 150]
(2) Nc1cc(S(=O)(=O)c2ccc(OC(F)(F)F)cc2)cnc1C(=O)N1CC(N2CCOCC2)C1 [Compound 60]
Input: Could you please tell me which of these two has the higher % Activation: 1 or 2 ? Which one? Tell me its label.
Output: 2

(P) Nc1cc(S(=O)(=O)N2CCOc3ccccc32)cnc1C(=O)NCC(O)C(F)(F)F (centres unmarked) [Compound 109]
(Q) COC[C@H](O)CNC(=O)c1ncc(S(=O)(=O)c2ccccc2OC(F)(F)F)cc1N [Compound 177]
Input: // max by % Activation over [ P , Q ] Please identify the chosen entry by its label.
Output: Q
(Q: 91.4%, P: 62.6%)

====

- TESTED_TARGET: CFTR ΔF508 mutant (Homo sapiens, UniProt P13569, DEL508-508)
- Construct: expressed in transfected cells; host or cells: CFBE41o- cells, adenoviral transduction
- Sequence (P13569 with tags, fused parts or gaps DEL508-508): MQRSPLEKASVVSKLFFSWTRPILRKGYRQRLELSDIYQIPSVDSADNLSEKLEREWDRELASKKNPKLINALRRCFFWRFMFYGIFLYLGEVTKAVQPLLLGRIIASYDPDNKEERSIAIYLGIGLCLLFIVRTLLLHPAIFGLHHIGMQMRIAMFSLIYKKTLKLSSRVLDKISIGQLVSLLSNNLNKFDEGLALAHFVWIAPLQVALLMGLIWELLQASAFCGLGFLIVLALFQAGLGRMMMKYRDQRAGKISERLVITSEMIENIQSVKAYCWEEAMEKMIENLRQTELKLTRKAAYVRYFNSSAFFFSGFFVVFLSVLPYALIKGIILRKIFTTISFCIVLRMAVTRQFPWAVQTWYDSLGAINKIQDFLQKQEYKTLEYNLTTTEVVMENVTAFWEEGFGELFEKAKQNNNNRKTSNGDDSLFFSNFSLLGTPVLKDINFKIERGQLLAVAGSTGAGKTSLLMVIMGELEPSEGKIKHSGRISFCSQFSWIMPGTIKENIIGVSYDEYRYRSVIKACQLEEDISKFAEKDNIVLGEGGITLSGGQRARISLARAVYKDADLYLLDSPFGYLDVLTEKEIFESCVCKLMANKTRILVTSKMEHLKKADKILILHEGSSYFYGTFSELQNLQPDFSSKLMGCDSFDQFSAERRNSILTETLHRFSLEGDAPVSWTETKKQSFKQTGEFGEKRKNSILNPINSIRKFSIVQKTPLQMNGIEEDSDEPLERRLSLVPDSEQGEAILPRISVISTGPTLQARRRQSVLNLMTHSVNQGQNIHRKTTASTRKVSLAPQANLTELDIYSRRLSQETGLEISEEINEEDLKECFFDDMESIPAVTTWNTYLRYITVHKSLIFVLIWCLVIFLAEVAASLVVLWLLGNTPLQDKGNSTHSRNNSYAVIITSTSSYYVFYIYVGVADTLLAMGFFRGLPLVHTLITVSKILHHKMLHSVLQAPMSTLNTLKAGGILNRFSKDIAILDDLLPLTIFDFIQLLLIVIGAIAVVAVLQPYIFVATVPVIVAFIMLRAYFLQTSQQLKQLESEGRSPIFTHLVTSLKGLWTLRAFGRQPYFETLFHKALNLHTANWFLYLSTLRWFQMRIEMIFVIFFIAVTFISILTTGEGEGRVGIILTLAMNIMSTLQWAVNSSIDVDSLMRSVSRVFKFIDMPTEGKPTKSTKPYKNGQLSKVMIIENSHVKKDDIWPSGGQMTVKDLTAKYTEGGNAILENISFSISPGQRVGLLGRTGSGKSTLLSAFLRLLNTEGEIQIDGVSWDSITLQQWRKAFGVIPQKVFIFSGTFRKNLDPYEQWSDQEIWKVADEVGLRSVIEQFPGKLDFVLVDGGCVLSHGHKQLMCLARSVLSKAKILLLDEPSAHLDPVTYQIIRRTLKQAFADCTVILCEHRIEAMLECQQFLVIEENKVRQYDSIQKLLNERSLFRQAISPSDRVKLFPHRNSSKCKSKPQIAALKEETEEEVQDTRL
- TEST_SUMMARY: YFP-halide influx assay for the CFTR-ΔF508 mutation (CFBE41o- cells)
- Format: cell-based
- STATED_CONDITIONS: forskolin 10.67 μM
QUANTITY_KIND: % Activation (%)

Worked examples, 4 molecules total:
- C[C@H](O)CNC(=O)c1nc(C2CC2)c(S(=O)(=O)c2ccc(OC(F)(F)F)cc2)cc1N: 88.2
- COc1ccnc(CNC(=O)c2ncc(S(=O)(=O)N3CCC[C@@H]3C)cc2N)n1: 89.4
- CCOCCOCC(O)CNC(=O)c1ncc(S(=O)(=O)c2ccc(OC(F)(F)F)cc2)cc1N (stereo not drawn): 103.0
- CC(C)COCC(O)CNC(=O)c1ncc(S(=O)(=O)c2ccc(OC(F)(F)F)cc2F)cc1N (stereo not drawn): 103.7

(a) CC1(C)CN(C(=O)c2ncc(S(=O)(=O)c3ccc(C(F)(F)F)cc3)cc2N)C1
(b) C[C@H]1CCCN1S(=O)(=O)c1cnc(C(=O)NCc2nccc(=O)[nH]2)c(N)c1
Input: Could you check which of a and b has a smaller value for % Activation? Refer to your chosen item by its label in the answer.
Output: b
(b: 47.0%, a: 116.0%)

====

- TESTED_TARGET: CFTR ΔF508 mutant (Homo sapiens, UniProt P13569, DEL508-508)
- Construct: expressed in transfected cells; host or cells: CFBE41o- cells, adenoviral transduction
- TEST_SUMMARY: YFP-halide influx assay for the CFTR-ΔF508 mutation (CFBE41o- cells)
- Type: cell-based
- STATED_CONDITIONS: forskolin 10.67 μM
QUANTITY_KIND: % Activation (%)

- Nc1cc(S(=O)(=O)c2ccc(OC(F)(F)F)cc2)cnc1C(=O)NCC1CCCO1 (stereo not shown): 103.5
- C[C@H](O)CNC(=O)c1ncc(S(=O)(=O)c2ccc(C(F)(F)F)cc2)cc1N: 96.6
- Nc1cc(S(=O)(=O)c2ccc(C(F)(F)F)cc2)cnc1C(=O)N1CC(OC(F)F)C1: 114.3
- COC[C@H](O)CNC(=O)c1ncc(S(=O)(=O)c2ccc(OC(F)(F)F)cc2)cc1N: 102.0
- CC1(CCNC(=O)c2ncc(S(=O)(=O)c3ccc(OC(F)(F)F)cc3)cc2N)CC1: 104.0
- Nc1cc(S(=O)(=O)c2ccc(OC(F)(F)F)cc2)cnc1C(=O)NCC1CCCOC1 (stereo not shown): 91.4
- Cc1ccc(S(=O)(=O)c2cnc(C(=O)NCC(O)C(F)(F)F)c(N)c2)cc1 (stereo not shown): 114.0
- CCS(=O)(=O)c1cc(N)c(C(=O)NC[C@H](C)O)nc1-c1ccc(F)cc1: 97.2
- Nc1cc(S(=O)(=O)c2ccc(C(F)(F)F)cc2)cnc1C(=O)NC[C@H](O)COCC(F)(F)F: 96.2
- Nc1cc(S(=O)(=O)c2ccc(OC(F)(F)F)cc2)cnc1C(=O)N1CC(OCC(F)F)C1: 101.0
- Nc1cc(S(=O)(=O)c2ccc(OC(F)(F)F)cc2)cnc1C(=O)N1CC(F)C1: 110.0
- CC(C)c1ccc(S(=O)(=O)c2cnc(C(=O)NCC(O)C(F)(F)F)c(N)c2)cc1 (stereo not shown): 118.0
- Nc1cc(S(=O)(=O)c2ccc(OC(F)(F)F)cc2F)cnc1C(=O)NC[C@@H](O)C(F)(F)F: 107.9

====

- TESTED_TARGET: CFTR G551D mutant (Homo sapiens, UniProt P13569, G551D)
- Construct: expressed in transfected cells; host or cells: HEK293 cells, reverse transfection with plasmids
- TEST_SUMMARY: YFP-halide influx assay for the CFTR-G551D mutation (HEK293 cells)
- Format: cell-based
- STATED_CONDITIONS: forskolin 10.67 μM
QUANTITY_KIND: % Activation (%)

Illustrative cases are given below, each with its answer.
- Cc1ccc(S(=O)(=O)c2cnc(C(=O)NCC(O)C(F)(F)F)c(N)c2)cc1 (stereo not drawn): 80.8
- CC(C)(O)C1CN(C(=O)c2ncc(S(=O)(=O)c3ccc(C(F)(F)F)cc3)cc2N)C1: 55.0
- Nc1cc(S(=O)(=O)c2ccc(C(F)(F)F)cc2)cnc1C(=O)NC[C@H](O)COCC(F)(F)F: 83.7
- CC1(O)CN(C(=O)c2ncc(S(=O)(=O)c3ccc(OC(F)(F)F)cc3)cc2N)C1: 53.6

(I) COCCCNC(=O)c1ncc(S(=O)(=O)c2ccc(OC(F)(F)F)cc2)cc1N
(II) C[C@H]1CCCN1S(=O)(=O)c1cnc(C(=O)N2CC(O)C2)c(N)c1
Input: Quick check, higher % Activation between I and II ? Return value: the label identifying the chosen record.
Output: I

====

- TESTED_TARGET: CFTR G551D mutant (Homo sapiens, UniProt P13569, G551D)
- TEST_SUMMARY: YFP-halide influx assay for the CFTR-G551D mutation (HEK293 cells)
- STATED_CONDITIONS: forskolin 10.67 μM
pEC50: −log10 of the molar value.
QUANTITY_KIND: pEC50

* CCC(CO)NC(=O)c1ncc(S(=O)(=O)c2ccc(OC(F)(F)F)cc2)cc1N (centres unmarked) | 6.16
* Nc1cc(S(=O)(=O)N2CCC(C(F)(F)F)CC2)cnc1C(=O)NCC(O)C(F)(F)F (centres unmarked) | 6.52
* COCC(O)CCNC(=O)c1ncc(S(=O)(=O)c2ccc(OC(F)(F)F)cc2)cc1N (centres unmarked) | 5.78

(1) CC(O)(CNC(=O)c1ncc(S(=O)(=O)c2ccc(F)cc2)cc1N)C(F)(F)F (centres unmarked)
(2) Nc1cc(S(=O)(=O)N2CCCC(F)C2)cnc1C(=O)NCC(O)C(F)(F)F (centres unmarked)
Input: Just curious, which one has the larger pEC50 reading, 1 or 2 ? Reply with the label of the item you choose.
Output: 1
(1: 5.97, 2: 5.75)

====

- TESTED_TARGET: CFTR G551D mutant (Homo sapiens, UniProt P13569, G551D)
- TEST_SUMMARY: YFP-halide influx assay for the CFTR-G551D mutation (HEK293 cells)
- STATED_CONDITIONS: forskolin 10.67 μM
pEC50: −log10 of the molar value.
QUANTITY_KIND: pEC50

Reference set (3 entries):
- Nc1cc(S(=O)(=O)c2cccc(F)c2)cnc1C(=O)NC[C@@H](O)C(F)(F)F: 5.84
- COCCCNC(=O)c1ncc(S(=O)(=O)c2ccc(OC(F)(F)F)cc2)cc1N: 6.06
- CC1(O)CN(C(=O)c2ncc(S(=O)(=O)c3ccc(C(F)(F)F)cc3)cc2N)C1: 6.09

(A) Nc1cc(S(=O)(=O)c2ccc(F)cc2)cnc1C(=O)NCC1(O)CC1
(B) CC1(C)CN(C(=O)c2ncc(S(=O)(=O)c3ccc(C(F)(F)F)cc3F)cc2N)C1
Input: For A and B , which recorded pEC50 is lower? State the label of the item chosen.
Output: A

(1) N#CC1CN(C(=O)c2ncc(S(=O)(=O)c3ccc(OC(F)(F)F)cc3)cc2N)C1
(2) CC(C)COCC(O)CNC(=O)c1ncc(S(=O)(=O)c2ccc(OC(F)(F)F)cc2F)cc1N (stereo not drawn)
Input: Given 1 and given 2 , which shows the smaller recorded pEC50? Selection: enter the item's label.
Output: 1

(1) COC1CCN(S(=O)(=O)c2cnc(C(=O)NCC(O)C(F)(F)F)c(N)c2)CC1 (stereo not drawn)
(2) Nc1cc(S(=O)(=O)c2ccccc2OC(F)(F)F)cnc1C(=O)N1CC(F)(F)C1
Input: Quick check, higher pEC50 between 1 and 2 ? Response format: the label of the selected entry.
Output: 2

(A) Nc1cc(S(=O)(=O)c2ccc(OC(F)(F)F)cc2)cnc1C(=O)N1CCC(F)(F)C1
(B) COc1ccc(CN(C)S(=O)(=O)c2cnc(C(=O)NCC(O)C(F)(F)F)c(N)c2)cc1 (stereo not drawn)
Input: Would you kindly point out which of A and B has the smaller pEC50 figure? Reply with the label of the item you choose.
Output: A
(A: 5.90, B: 6.17)
